molecular target: human FXR (NR1H4) (Homo sapiens); test: Human FXR (NR1H4) Assay: Gal4 promoter driven luciferase reporter transactivation in CHO cells (Indigo Bioscience kit IB00601); type: cell-based; settings: potency range, Human FXR (NR1H4) reporter assay in CHO cells; read-out: EC50
Sequence (Q96RI1 whole entry, the tested form may be a part): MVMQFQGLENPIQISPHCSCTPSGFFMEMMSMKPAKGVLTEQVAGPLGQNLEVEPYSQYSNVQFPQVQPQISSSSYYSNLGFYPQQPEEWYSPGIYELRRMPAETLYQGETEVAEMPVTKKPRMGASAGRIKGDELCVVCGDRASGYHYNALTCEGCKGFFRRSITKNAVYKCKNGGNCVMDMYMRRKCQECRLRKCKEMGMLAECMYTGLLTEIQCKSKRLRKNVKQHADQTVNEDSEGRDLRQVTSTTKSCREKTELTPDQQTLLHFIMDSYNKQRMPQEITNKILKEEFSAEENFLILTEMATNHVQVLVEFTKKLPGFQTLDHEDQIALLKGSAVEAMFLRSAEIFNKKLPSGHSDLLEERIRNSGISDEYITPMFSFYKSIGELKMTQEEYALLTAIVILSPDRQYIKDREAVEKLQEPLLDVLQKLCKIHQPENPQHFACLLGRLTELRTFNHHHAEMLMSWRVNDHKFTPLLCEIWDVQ
pEC50: −log10 of the molar value.
For each record, write down the corresponding pEC50.

O=C(O)c1ccc(NC(=O)N2C3CCC2CC(OCc2c(-c4ccccc4OC(F)(F)F)noc2C2CC2)C3)cc1OC(F)(F)F (stereo not shown) :: > 8.00
COc1cc(C(=O)O)c(-c2ccccc2)cc1NC(=O)N1C2CCC1CC(OCc1c(-c3c(Cl)cccc3Cl)noc1C1CC1)C2 (stereo not shown) :: > 8.00
O=C(NCc1cccc(-c2ccccc2)c1)N1C2CCC1CC(OCc1c(-c3c(Cl)cccc3Cl)noc1C1CC1)C2 (stereo not shown) :: 6.00 to 7.00

Here is the next item to consider.
Quick one: pEC50 of O=C(O)c1cnc2ccc(NC(=O)N3C4CCC3CC(OCc3c(-c5c(Cl)cccc5Cl)noc3C3CC3)C4)cc2c1 (stereo not shown) ?
6.00 to 7.00

// data source = patent US10597391B2
